- Test system: MS2 coat protein
- measurement.description: apparent KD of MS2 coat protein; designed switch direction (-1 OFF switch, 1 ON switch): -1; higher = weaker reporter binding
- conditions: Eterna round: R95; input ligand: microRNA oligo, concentration not stated
List of apparent KD of MS2 coat protein values.
Numeric answer only, unit nM assumed.

Record excerpt, results attached:
query.sequence	target.or.test.system	experimental.endpoint	endpoint.unit	value
AGUAGGUCUACCUUGGUGGAUCUGCAUAAAGCAAGUGAUACAUGAGGAUCACCCAUGUCCUCAUUUGCUCGUCUUAU [JL turnoff v2 99.21] (puzzle: Sensor v3, turn-off variant 2)	MS2 coat protein	apparent KD of MS2 coat protein	nM	216
AGAGAGUCAGGAUAUCGAAGGGAGAGGAAAGGAGAGAGGGACGAGAAGGGACAUGAGGAUCACCCAUGUAGGUG [JR_Exclusion4)Sub016] (puzzle: Exclusion 4)	MS2 coat protein	apparent KD of MS2 coat protein	nM	200

Task: If you can, please state the reported apparent KD of MS2 coat protein value of GAACUCGUGAAGGAUAUCCGUACCAAAGCGGCAGGAGAAGGUCACACAUGAGGAUCACCCAUGUGGUACCUCGU [Xeinbira] (puzzle: Exclusion 6) .
Output: 27.4
